These entries and their values trace back to the RNAGym collection of RNA variant scans (doi:10.7554/elife.80360).

B1: CPEB3 Ribozyme (parent)
chain: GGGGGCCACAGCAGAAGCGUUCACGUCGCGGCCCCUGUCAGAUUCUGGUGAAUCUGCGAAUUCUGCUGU

Variants of: B1
Test: self-cleavage, relative activity (ratio to wild type); higher = more cleavage; co-transcriptional
What self-cleavage was measured for each of the following?

Would you please look over these solved cases?
variant_descriptor="G2U C45U" reported_endpoint=self-cleavage value=0.102
variant_descriptor="G48U U64G" reported_endpoint=self-cleavage value=0.955
variant_descriptor="A52C A59G" reported_endpoint=self-cleavage value=0.985
variant_descriptor="G14C C18G" reported_endpoint=self-cleavage value=0.101
variant_descriptor="G5A G25U" reported_endpoint=self-cleavage value=0.0968
variant_descriptor="G30U U64A" reported_endpoint=self-cleavage value=0.288

For every item below, please supply its self-cleavage.
1. U43G G50A
2. A52G U67A

Outgoing:
1. 0.938
2. 1
